# system: T1, human MSLN-hFc protein (Acro, Cat. No. MSN-H5253) (human, UniProt Q13421 296-580)
# T1 construct: the method names the coated protein as human MSLN-hFc (Acro); also called human MSLN full-length protein
# T1 sequence (Q13421 other isoform, or with tags, fused parts or gaps limits assumed): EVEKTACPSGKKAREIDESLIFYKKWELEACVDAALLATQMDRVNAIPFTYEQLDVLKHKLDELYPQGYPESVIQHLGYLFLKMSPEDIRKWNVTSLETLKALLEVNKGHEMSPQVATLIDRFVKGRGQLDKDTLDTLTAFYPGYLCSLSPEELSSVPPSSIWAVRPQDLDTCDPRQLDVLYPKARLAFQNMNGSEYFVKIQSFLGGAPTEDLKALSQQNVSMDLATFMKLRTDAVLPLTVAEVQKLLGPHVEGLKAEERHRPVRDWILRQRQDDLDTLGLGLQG
# assay_notes: ELISA on coated antigen, antibody 0.01 nM
assay_metric: OD450 (OD450)
Quick note: give the figure in OD450, leave out the unit.

// known answers, use as guide
# binder, OD450 (OD450)
data = [
    ("F7.33.24-H8 (scFv, not shown: small tags and cut ends, also called S009-F7.33.24 humanized antibody VH2 + VL2) scFv: EVQLVQSGAEVKKPGASVKVSCKASGYTFTSYWMHWVRQAPGQGLEWMGNVNPSNGGSNYNEKFKNRVTITVDKSASTAYMELSSLRSEDTAVYYCAPHYIGSRPGFAYWGQGTLVTVSSGGGGSGGGGSGGGGSDIVMTQTPLSLSVTPGQPASISCKASQNVGTNIAWYLQKPGQSPQALIYSASYRYSGVPDRFSGSGSGTDFTLKISRVEAEDVGVYYCQQYNSYPLTFGGGTKVEIK", 0.05),
    ("F7.33.24-H4 (scFv, not shown: small tags and cut ends, also called S009-F7.33.24 humanized antibody VH1a + VL1) scFv: EVQLVQSGAEVKKPGASVKVSCKASGYTFTSYWMHWVRQAPGQRLEWMGNVNPSSGGSNYNEKFKNRVTITVDKSASTAYMELSSLRSEDTAVYYCAPHYIGSRPGFAYWGQGTLVTVSSGGGGSGGGGSGGGGSDIVMTQSPDSLAVSLGERATINCKASQNVGTNIAWYQQKPGQSPKALIYSASYRYSGVPDRFSGSGSGTDFTLTISSLQAEDVAVYYCQQYNSYPLTFGGGTKVEIK", 0.07),
]

// next entry
Ask | Please look up its OD450: F7.33.24-H12 (scFv, not shown: small tags and cut ends, also called S009-F7.33.24 humanized antibody VH2a + VL3) scFv: EVQLVQSGAEVKKPGASVKVSCKASGYTFTSYWMHWVRQAPGQGLEWMGNVNPSNAGSNYNEKFKNRVTITVDKSASTAYMELSSLRSEDTAVYYCAPHYIGSRPGFAYWGQGTLVTVSSGGGGSGGGGSGGGGSDIVMTQTPLSLSVTPGQPASISCKASQNVGTNIAWYQQKPGQSPQALIYSASYRYSGVPDRFSGSGSGTDFTLKISRVEAEDVGVYYCQQYNSYPLTFGGGTKVEIK
Reply | 0.04
